biological target: BACE1 endogenous to primary cortical neurons from E16.5 CD1 mice (mouse, UniProt P56818 46-501); experiment: cell-based or functional assay
Sequence (P56818 46-501): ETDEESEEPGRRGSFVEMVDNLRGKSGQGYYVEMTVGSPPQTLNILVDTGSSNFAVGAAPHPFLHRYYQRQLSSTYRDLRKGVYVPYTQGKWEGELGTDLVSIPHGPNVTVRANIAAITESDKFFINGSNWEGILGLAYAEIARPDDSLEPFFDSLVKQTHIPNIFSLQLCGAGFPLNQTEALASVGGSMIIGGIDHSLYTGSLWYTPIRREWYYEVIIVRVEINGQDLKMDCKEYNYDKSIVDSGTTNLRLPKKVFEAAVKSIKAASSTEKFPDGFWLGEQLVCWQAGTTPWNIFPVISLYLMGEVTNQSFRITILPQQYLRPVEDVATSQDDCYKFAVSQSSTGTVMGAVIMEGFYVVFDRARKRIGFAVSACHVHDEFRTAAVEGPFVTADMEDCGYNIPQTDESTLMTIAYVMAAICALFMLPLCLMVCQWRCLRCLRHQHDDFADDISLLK
readoutType: max % inhibition, Abeta x-40 in mouse cortical neurons (%)
// note: answer is a bare numeric in %

- binder: "6275 (antibody, V domains shown) VH: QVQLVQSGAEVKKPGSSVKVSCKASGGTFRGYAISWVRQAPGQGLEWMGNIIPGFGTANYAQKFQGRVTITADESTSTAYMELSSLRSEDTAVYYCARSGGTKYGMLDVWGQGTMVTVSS VL: EIVMTQSPATLSVSPGERATLSCRASQSVSSNLAWYQQKPGQAPRLLIYGASTRATGIPARFSGSGSGTEFTLTISSLQSEDFAVYYCQQLFLWPPRTFGGGTKVEIK"
  numericValue: 71
- binder: "6271 (antibody, V domains shown) VH: QVQLVQSGAEVKKPGSSVKVSCKASGGTISGYGISWVRQAPGQGLEWMGNIIPGFGTANYAQKFQGRVTITADESTSTAYMELSSLRSEDTAVYYCARSGGTKYGMLDVWGQGTMVTVSS VL: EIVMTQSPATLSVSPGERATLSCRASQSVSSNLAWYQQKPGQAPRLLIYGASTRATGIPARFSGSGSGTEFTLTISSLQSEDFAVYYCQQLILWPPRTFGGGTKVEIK"
  numericValue: 83
- binder: "5988 (antibody, V domains shown) VH: QVQLVQSGAEVKKPGSSVKVSCKASGGTLSGYAISWVRQAPGQGLEWMGNIIPGFGTANYAQKSQGRVTITADESTSTAYMELSSLRSEDTAVYYCARSGGTRYGMLDVWGQGTMVTVSS VL: GIVMTQSPATLSVSPGERATLSCRASQSVGSNLAWYQQKPGQAPRLLIYGASTRATGIPARFSGSGSGTEFTLTISSLQSEDFAVYYCQQLYTWPPRTFGGGTKVEIK"
  numericValue: 75
- binder: "5987 (antibody, V domains shown) VH: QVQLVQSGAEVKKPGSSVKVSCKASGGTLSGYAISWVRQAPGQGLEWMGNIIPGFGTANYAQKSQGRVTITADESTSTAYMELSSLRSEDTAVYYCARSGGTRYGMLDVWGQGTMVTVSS VL: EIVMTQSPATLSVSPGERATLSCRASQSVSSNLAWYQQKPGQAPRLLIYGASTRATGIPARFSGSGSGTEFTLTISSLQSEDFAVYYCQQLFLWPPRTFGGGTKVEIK"
  numericValue: 69

We now examine a further binder.
Prompt: Can you look up the measured max % inhibition, Abeta x-40 in mouse cortical neurons of 5931 (antibody, V domains shown) VH: QLQLQESGPGLVKPSETLSLTCTVSGGSISWSSYYWSWIRQPPGKGLEWIGSIYRSGRTYYNPSLKGRVTISVDTSKNQFSLKLSSVTAADTAVYYCARVGHGINYFDLWGRGTLVTVSS VL: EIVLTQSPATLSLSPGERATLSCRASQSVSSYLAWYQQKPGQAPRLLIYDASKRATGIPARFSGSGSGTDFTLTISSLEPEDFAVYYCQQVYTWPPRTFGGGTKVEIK for me?
Response: 69
